TARGET SYSTEM: Sentrin-specific protease 7 (Homo sapiens) (UniProt Q9BQF6)
PROTOCOL SUMMARY: SENP7 protease inhibitors, primary screen, biochemical, luminescence, uHTS (AID 434973);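 note: plate controls were DMSO with enzyme for no effect and no enzyme buffer wells for full effect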
CONDITION INFO: recombinant SENP7, Z-RLRGG-aminoluciferin luminescence, 40 min; at 5 µM; hits give high values
Out of some 330,000 compounds screened, about 4,900 (1.5%) were called active. Only a selection was taken, and actives are over-represented in it overall.
Measured inhibition values are reported for all entries that follow.
OUTCOME MEASURE: inhibition (%)

[
  {
    "LINE NOTATION": "COc1cc(SC)ccc1C(=O)Nc1cc(C)ccn1",
    "EXPERIMENTAL RESULT": 60.6
  },
  {
    "LINE NOTATION": "Cc1occc1C(=O)Nc1cccc(Cn2cccn2)c1",
    "EXPERIMENTAL RESULT": 8.79
  },
  {
    "LINE NOTATION": "Cc1ccnc(NC(=O)CNC(=O)c2ccccc2)c1",
    "EXPERIMENTAL RESULT": -1.59
  },
  {
    "LINE NOTATION": "COC(=O)c1sc(NC(=O)c2ccc(OC)cc2OC)nc1C",
    "EXPERIMENTAL RESULT": 101
  },
  {
    "LINE NOTATION": "COc1cc(SC)ccc1C(=O)Nc1nc(C)cs1",
    "EXPERIMENTAL RESULT": 101
  },
  {
    "LINE NOTATION": "Cc1ccc(C(=O)N(CC(=O)NC2CCCC2)c2ccc(F)cc2)s1",
    "EXPERIMENTAL RESULT": -4.07
  },
  {
    "LINE NOTATION": "O=c1onc(-c2c(F)cccc2F)n1-c1ccccc1Cl",
    "EXPERIMENTAL RESULT": -2.38
  },
  {
    "LINE NOTATION": "COc1ccc(SC[C@H](Cc2ccccc2)N2CCN(CCc3ccccc3)CCC2=O)cc1",
    "EXPERIMENTAL RESULT": -3.68
  },
  {
    "LINE NOTATION": "COc1cc2ccccc2cc1C(=O)Nc1nc(C)c(C(C)=O)s1",
    "EXPERIMENTAL RESULT": -4.32
  },
  {
    "LINE NOTATION": "CC[C@]1(C(=O)OC)[C@H]2C(=O)N(Cc3ccccc3)C(=O)[C@H]2[C@H]2CN=C(SCc3ccc(C#N)cc3)N21",
    "EXPERIMENTAL RESULT": -3.53
  },
  {
    "LINE NOTATION": "Cc1ccnc(NC(=O)c2ccoc2C)c1",
    "EXPERIMENTAL RESULT": 71.9
  }
]

---

Measured inhibition values are reported for all entries that follow.
TARGET SYSTEM: Sentrin-specific protease 7 (Homo sapiens)
PROTOCOL SUMMARY: SENP7 protease inhibitors, primary screen, biochemical, luminescence, uHTS (AID 434973);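 note: plate controls were DMSO with enzyme for no effect and no enzyme buffer wells for full effect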
CONDITION INFO: recombinant SENP7, Z-RLRGG-aminoluciferin luminescence, 40 min; at 5 µM; hits give high values
Among all 330,000 compounds or so, about 4,900 (1.5%) were called active. This is one part of a sample in which actives are shown more often than they occur.
OUTCOME MEASURE: inhibition (%)

[
  {
    "COMPOUND": "CCCc1ccc(OCCNC(=O)c2ccco2)cc1",
    "EXPERIMENTAL RESULT": -0.541
  },
  {
    "COMPOUND": "O=C(c1ccc(CSc2ccccc2)cc1)N1CCCCCC1",
    "EXPERIMENTAL RESULT": 72.6
  },
  {
    "COMPOUND": "O=C(c1ccc(S(=O)(=O)c2ccccc2)cc1)N1CCCCCC1",
    "EXPERIMENTAL RESULT": 3.58
  },
  {
    "COMPOUND": "Cc1nc2cc(NC(=O)Nc3cccc(F)c3)ccc2n1C",
    "EXPERIMENTAL RESULT": 96.5
  },
  {
    "COMPOUND": "NC1=NN(c2cccc(C(=O)O)c2)C(=O)C1",
    "EXPERIMENTAL RESULT": 5.47
  },
  {
    "COMPOUND": "O=C(O)c1ccc(N=NN2CCOCC2)cc1",
    "EXPERIMENTAL RESULT": -2.47
  },
  {
    "COMPOUND": "CC1CCN(C(=O)C2CCN(S(=O)(=O)N3CCC4(CC3)OCCO4)CC2)CC1",
    "EXPERIMENTAL RESULT": 6.94
  },
  {
    "COMPOUND": "Cc1nn2cc(-c3ccc(Cl)cc3)cnc2c1Br",
    "EXPERIMENTAL RESULT": 88.2
  },
  {
    "COMPOUND": "CCCc1ccc(OCCNC(=O)c2ccccc2Br)cc1",
    "EXPERIMENTAL RESULT": -1.05
  },
  {
    "COMPOUND": "CCCCNC(=O)OC(C)CNC(=O)OC (configuration not stated)",
    "EXPERIMENTAL RESULT": -1.91
  },
  {
    "COMPOUND": "[O-][N+]12CCCCC1CCCC2CO (configuration not stated)",
    "EXPERIMENTAL RESULT": 5.46
  },
  {
    "COMPOUND": "CCOC(=O)c1cnc(Nc2nc3ccccc3o2)nc1CSC(=S)N1CCCCC1",
    "EXPERIMENTAL RESULT": 0.449
  }
]
